Hello, the source for this data is PubChem BioAssay AID624351, in case you need it.

test: coupled detection enzyme interference, dose response, artefact control for MgcRacGAP inhibitor project, biochemical, coupled enzyme counter-screen (AID 624351); conditions: ADP Hunter coupled enzyme counter-screen, fluorescence, no MgcRacGAP; series mostly up to 80 µM;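 also: signal is the ADP detection kit reading of free GDP without any GAP enzyme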
The whole screen tested about 2,400 compounds, of which about 1,400 (58%) were called active.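 The calls were made as follows: active = inhibition of 30% or more at any tested dose; inconclusive = primary hits over the limit that were never retested; inactive = the rest.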 The set was probably picked from earlier hits. Some of the results follow.
Respond using exactly one of the listed classes: active, inactive

Examples with answers:
| COMPOUND | ASSIGNED_CLASS |
| --- | --- |
| C=C1CC(C(=O)N/N=C/c2ccc(O)cc2)C1 | active |
| COc1ccc(C(=O)N2CCN(C3CCN(Cc4ccccc4)CC3)CC2)cc1OC | inactive |
| COc1cc(/C=C/C(=O)OCC(=O)NC(=O)NC(C)C)ccc1O | active |
| O=C(c1cccc(F)c1)N1CCN(Cc2cccc(Br)c2)CC1 | inactive |
| COc1ccc(NC2CCCN(C(=O)CSc3ccccc3)C2)cc1OC (stereo unspecified) | active |

Recorded test call requested for COc1cc(/C=N/N=C2\CC3CCC2(C)C3(C)C)ccc1O (stereo unspecified)
active

Recorded test call requested for COc1ccc(NC2CCCN(C(=O)CCN3CCCO3)C2)cc1 (stereo unspecified)
inactive

Recorded test call requested for COc1ccc(NC2CCCN(C(=O)CCc3cccc(F)c3)C2)cc1 (stereo unspecified)
active

Recorded test call requested for COc1ccc(CN2CCN(Cc3cccc(F)c3)CC2)cc1OC
inactive

Recorded test call requested for COc1ccc(NC2CCCN(C(=O)CCN3CCCC3=O)C2)cc1OC (stereo unspecified)
inactive

Recorded test call requested for COc1cc(/C=N/NC(=O)NC23CC4CC(CC(C4)C2)C3)ccc1O
active
